# Assay Info: Pharmacokinetic assessment of plasma concentrations (LC-MS/MS, non-compartmental analysis) after mono/dual and triple therapy
# Experimental Context: male, human, plasma, oral, AUClast, ilaprazole in triple therapy, period 2 of part 1; N = 13; arithmetic mean (SD)
Quantity: AUC(0-t) (ng·h/mL)
Form entry: value (ng·h/mL) — number only.

// query Any idea what its AUC(0-t) is? The compound is COc1ccnc(C[S+]([O-])c2nc3cc(-n4cccc4)ccc3[nH]2)c1C (stereo not shown)
// result 3540

----------
# Assay Info: Pharmacokinetic assessment of plasma concentrations (LC-MS/MS, non-compartmental analysis) after mono/dual and triple therapy
# Experimental Context: male, human, plasma, oral, t1/2, dual therapy, period 1 of part 2; N = 15; arithmetic mean (SD)
Quantity: half-life (h)
Form entry: value (h) — number only.

// query Any idea what its half-life is? The compound is CC[C@H]1OC(=O)[C@H](C)[C@@H](O[C@H]2C[C@@](C)(OC)[C@@H](O)[C@H](C)O2)[C@H](C)[C@@H](O[C@@H]2O[C@H](C)C[C@H](N(C)C)[C@H]2O)[C@](C)(OC)C[C@@H](C)C(=O)[C@H](C)[C@@H](O)[C@]1(C)O [Clarithromycin, clarithromycin]
// result 4.84

----------
# Assay Info: Pharmacokinetic assessment of plasma concentrations (LC-MS/MS, non-compartmental analysis) after mono/dual and triple therapy
# Experimental Context: male, human, plasma, oral, 10 mg, t1/2, ilaprazole monotherapy, period 1 of part 1; N = 13; arithmetic mean (SD)
Quantity: half-life (h)
Form entry: value (h) — number only.

// query Any idea what its half-life is? The compound is COc1ccnc(C[S+]([O-])c2nc3cc(-n4cccc4)ccc3[nH]2)c1C (stereo not shown)
// result 4.16

----------
# Assay Info: Pharmacokinetic assessment of plasma concentrations (LC-MS/MS, non-compartmental analysis) after mono/dual and triple therapy
# Experimental Context: male, human, plasma, oral, AUCinf, geometric least square mean, dual therapy, period 1 of part 2; N = 15
I'd appreciate it if you could supply AUC(0-inf) values for the items below.
Form entry: value (ng·h/mL) — number only.

// query Any idea what its AUC(0-inf) is? The compound is CC1(C)S[C@@H]2[C@H](NC(=O)[C@H](N)c3ccc(O)cc3)C(=O)N2[C@H]1C(=O)O
// result 27200

// query Any idea what its AUC(0-inf) is? The compound is CC[C@H]1OC(=O)[C@H](C)[C@@H](O[C@H]2C[C@@](C)(OC)[C@@H](O)[C@H](C)O2)[C@H](C)[C@@H](O[C@@H]2O[C@H](C)C[C@H](N(C)C)[C@H]2O)[C@](C)(OC)C[C@@H](C)C(=O)[C@H](C)[C@@H](O)[C@]1(C)O
// result 14400

----------
# Assay Info: Pharmacokinetic assessment of plasma concentrations (LC-MS/MS, non-compartmental analysis) after mono/dual and triple therapy
# Experimental Context: male, human, plasma, po, 10 mg, Tmax, ilaprazole 10 mg oral single dose alone (monotherapy, period 1 of part 1); N = 13; median (min–max)
Quantity: Tmax (h)
Form entry: value (h) — number only.

// query Any idea what its Tmax is? The compound is COc1ccnc(C[S+]([O-])c2nc3cc(-n4cccc4)ccc3[nH]2)c1C (stereo not shown) [Ilaprazole, ilaprazole]
// result 3.5

----------
I'd appreciate it if you could supply AUC(0-inf) values for the items below.
# Assay Info: Pharmacokinetic assessment of plasma concentrations (LC-MS/MS, non-compartmental analysis) after mono/dual and triple therapy
# Experimental Context: male, human, plasma, oral, AUCinf, dual therapy, period 1 of part 2; N = 15; arithmetic mean (SD)
State the result as a value with its unit after it.

// query Any idea what its AUC(0-inf) is? The compound is CC[C@H]1OC(=O)[C@H](C)[C@@H](O[C@H]2C[C@@](C)(OC)[C@@H](O)[C@H](C)O2)[C@H](C)[C@@H](O[C@@H]2O[C@H](C)C[C@H](N(C)C)[C@H]2O)[C@](C)(OC)C[C@@H](C)C(=O)[C@H](C)[C@@H](O)[C@]1(C)O [Clarithromycin, clarithromycin]
// result 15000 ng·h/mL

// query Any idea what its AUC(0-inf) is? The compound is CC1(C)S[C@@H]2[C@H](NC(=O)[C@H](N)c3ccc(O)cc3)C(=O)N2[C@H]1C(=O)O [Amoxicillin, amoxicillin]
// result 28500 ng·h/mL
